Target: GSTO1 (Homo sapiens)
Sequence (P78417 1-241): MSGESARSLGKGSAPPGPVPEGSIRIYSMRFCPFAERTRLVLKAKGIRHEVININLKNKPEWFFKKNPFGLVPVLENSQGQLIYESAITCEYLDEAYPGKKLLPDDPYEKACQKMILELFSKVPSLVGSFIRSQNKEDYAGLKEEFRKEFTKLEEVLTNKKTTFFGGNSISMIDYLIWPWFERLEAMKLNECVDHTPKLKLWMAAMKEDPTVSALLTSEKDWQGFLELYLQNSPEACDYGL
Assay: In-gel fluorescence competitive CMFDA binding assay, recombinant GSTO1
Conditions: inhibition of CMFDA binding
MEASUREMENT_NAME: GSTO binding assay (% Inhibition at 10 µM) Recombinant (%)
One number for each entry, in %.

Example compounds with recorded GSTO binding assay (% Inhibition at 10 µM) Recombinant:
{"COMPOUND": "CCOC(=O)c1c(NC(=O)CCl)sc(C(=O)Nc2ccc(C)cc2C)c1C", "MEASURED_ON": "GSTO1 (Homo sapiens)", "ENDPOINT_VALUE": 57.9}
{"COMPOUND": "CCOc1ccc(NC(=O)NC(=O)CCl)cc1OCC", "MEASURED_ON": "GSTO1 (Homo sapiens)", "ENDPOINT_VALUE": 59.2}
{"COMPOUND": "Cc1cc(C)c(NC(=O)CNC(=O)CCl)c(C)c1", "MEASURED_ON": "GSTO1 (Homo sapiens)", "ENDPOINT_VALUE": 29.2}
{"COMPOUND": "NC(=O)CCN(Cc1ccccc1)C(=O)CCl", "MEASURED_ON": "GSTO1 (Homo sapiens)", "ENDPOINT_VALUE": 45.2}
{"COMPOUND": "O=C(CCl)Nc1ccccc1N1CCCC1=O", "MEASURED_ON": "GSTO1 (Homo sapiens)", "ENDPOINT_VALUE": 6.4}

Dear reader, for each entry below, please note its GSTO binding assay (% Inhibition at 10 µM) Recombinant.
1. Cn1ccnc1C(NC(=O)CCl)c1ccccc1 (centres unmarked)
2. Cc1ccc(CSCCNC(=O)CCl)cc1
3. CCN1CCC(NC(=O)CCl)CC1
4. COc1ccc(S(=O)(=O)N2CCCCCC2)cc1NC(=O)CCl
5. Cc1cccc(NC(=S)NC(NC(=O)CCl)C(Cl)(Cl)Cl)c1 (centres unmarked)
6. NC(=O)CCN(C(=O)CCl)c1ccccc1

29.4
35.7
-0.8
60.0
63.4
-1.7

# map each compound to its GSTO binding assay (% Inhibition at 10 µM) Recombinant
1. CCOc1cc2c(cc1CNC(=O)CCl)OC(C)C2 (centres unmarked)
2. O=C(CCl)N1CCN(c2ccccc2F)CC1
3. O=C(CCl)Nc1ccc(Oc2ccc(Br)cc2)cc1
4. N#CC(c1cccs1)N1CCN(C(=O)CCl)CC1 (centres unmarked)

14.7
9.4
75.6
57.7

Sourced from paper PMC5059489
